- experiment: Distribution profile of prototype drug and rapamycin in plasma, liver and tumor of nude mice (LC-MS)
- Type: in vivo
- condition.notes: nude, mouse, plasma, 2.0 h after administration, mean of 3 animals; read-out: Y31 (prototype) concentration, Blood Plasma, Mean Value
measured.property: concentration at 2 h (ng/mL)
Numbers only, in ng/mL.

Query string: Query: concentration at 2 h; subject: CO[C@H]1C[C@@H]2CC[C@@H](C)[C@@](O)(O2)C(=O)C(=O)N2CCCC[C@H]2C(=O)O[C@H]([C@H](C)C[C@@H]2CC[C@@H](OC(=O)OCC(O)CO)[C@H](OC)C2)CC(=O)[C@H](C)/C=C(\C)[C@@H](O)[C@@H](OC)C(=O)[C@H](C)C[C@H](C)/C=C/C=C/C=C/1C (stereo partly shown) [Y31]
Result string: 0.49
